Here, each record is paired with measured IC50, TF1 proliferation assay, 200 pM hIL13 data.
measured.target: human IL-13 (human, UniProt P35225 35-146, limits assumed)
test.summary: cell-based or functional assay
Please give a number only; it is taken to be in M.

{"binder": "F010700029 (bispecific antibody, Biparatopic anti-IL-13 construct of two VHHs, Pichia pastoris, FLAG3-HIS6-tagged; also called F0107004B02-35GS-F0107004B06; not shown: FLAG3-HIS6 tag) EVQLVESGGGLVQAGGSLRLSCAASGRTFSSYRMGWFRQAPGKEREFVAALSGDGYSTYTANSVNSRFTISRDNAKNTVYLQMNSLKPEDTAIYYCAAKLQYVSGWSYDYPYWGQGTLVTVSSGGGGSGGGGSGGGGSGGGGSGGGGSGGGGSGGGGSEVQLVESGGGLVQPGGSLRLSCAASGFTFNNYAMKWVRQAPGKGLEWVSSITTGGGSTDYADSVKGRFTISRDNRKNTLYLQMNSLKPEDTAVYYCANVPFGYYSEHFSGLSFDYRGQGTLVTVSS", "quantity.unit": "M", "reported.measurement": "2e-11"}
{"binder": "F010700031 (VHH, Bivalent anti-IL-13 construct of two VHHs, Pichia pastoris, FLAG3-HIS6-tagged; also called F0107004B06-35GS-F0107004B06; not shown: FLAG3-HIS6 tag) EVQLVESGGGLVQPGGSLRLSCAASGFTFNNYAMKWVRQAPGKGLEWVSSITTGGGSTDYADSVKGRFTISRDNRKNTLYLQMNSLKPEDTAVYYCANVPFGYYSEHFSGLSFDYRGQGTLVTVSSGGGGSGGGGSGGGGSGGGGSGGGGSGGGGSGGGGSEVQLVESGGGLVQPGGSLRLSCAASGFTFNNYAMKWVRQAPGKGLEWVSSITTGGGSTDYADSVKGRFTISRDNRKNTLYLQMNSLKPEDTAVYYCANVPFGYYSEHFSGLSFDYRGQGTLVTVSS", "quantity.unit": "M", "reported.measurement": "1e-07"}
{"binder": "F010700003 (bispecific antibody, Biparatopic anti-IL-13 construct of two VHHs, expressed in Pichia pastoris as FLAG3-HIS6-tagged protein; also called F0107004B06-35GS-F0107004B02; not shown: FLAG3-HIS6 tag) EVQLVESGGGLVQPGGSLRLSCAASGFTFNNYAMKWVRQAPGKGLEWVSSITTGGGSTDYADSVKGRFTISRDNRKNTLYLQMNSLKPEDTAVYYCANVPFGYYSEHFSGLSFDYRGQGTLVTVSSGGGGSGGGGSGGGGSGGGGSGGGGSGGGGSGGGGSEVQLVESGGGLVQAGGSLRLSCAASGRTFSSYRMGWFRQAPGKEREFVAALSGDGYSTYTANSVNSRFTISRDNAKNTVYLQMNSLKPEDTAIYYCAAKLQYVSGWSYDYPYWGQGTLVTVSS", "quantity.unit": "M", "reported.measurement": "1.2e-08"}

// below: IC50, TF1 proliferation assay, 200 pM hIL13 requested for another binder
*Q* Sample F010700014 (VHH, Bivalent anti-IL-13 construct of two VHHs, Pichia pastoris, FLAG3-HIS6-tagged; also called F0107004B02-35GS-F0107004B02; not shown: FLAG3-HIS6 tag) EVQLVESGGGLVQAGGSLRLSCAASGRTFSSYRMGWFRQAPGKEREFVAALSGDGYSTYTANSVNSRFTISRDNAKNTVYLQMNSLKPEDTAIYYCAAKLQYVSGWSYDYPYWGQGTLVTVSSGGGGSGGGGSGGGGSGGGGSGGGGSGGGGSGGGGSEVQLVESGGGLVQAGGSLRLSCAASGRTFSSYRMGWFRQAPGKEREFVAALSGDGYSTYTANSVNSRFTISRDNAKNTVYLQMNSLKPEDTAIYYCAAKLQYVSGWSYDYPYWGQGTLVTVSS — what was its IC50, TF1 proliferation assay, 200 pM hIL13?
*A* 9.4e-08

Provenance of the data: patent US20220177564A1
